Numbers sourced from patent US5780620A.

assay: Reducing power by the Somogyi-Nelson method; format: physicochemical
Please respond with reported DE (reducing power) for every item in the list.
Form field (numeric): enter value without unit.

Query string: Query: DE (reducing power); subject: "OC[C@H]1O[C@H](O[C@H]2O[C@H](CO)[C@@H](O[C@H]3O[C@H](CO)[C@@H](O[C@H]4O[C@H](CO)[C@@H](O[C@H]5O[C@H](CO)[C@@H](O)[C@H](O)[C@H]5O)[C@H](O)[C@H]4O)[C@H](O)[C@H]3O)[C@H](O)[C@H]2O)[C@H](O)[C@@H](O)[C@@H]1O"
Result string: 0.10

Query string: # repeat for "OC[C@H]1O[C@H](O[C@H]2O[C@H](CO)[C@@H](O[C@H]3O[C@H](CO)[C@@H](O[C@H]4O[C@H](CO)[C@@H](O)[C@H](O)[C@H]4O)[C@H](O)[C@H]3O)[C@H](O)[C@H]2O)[C@H](O)[C@@H](O)[C@@H]1O"
Result string: 0.35

Query string: Next entry: "OC[C@H]1O[C@H](O[C@H]2O[C@H](CO)[C@@H](O[C@H]3O[C@H](CO)[C@@H](O[C@H]4O[C@H](CO)[C@@H](O[C@H]5O[C@H](CO)[C@@H](O[C@H]6O[C@H](CO)[C@@H](O)[C@H](O)[C@H]6O)[C@H](O)[C@H]5O)[C@H](O)[C@H]4O)[C@H](O)[C@H]3O)[C@H](O)[C@H]2O)[C@H](O)[C@@H](O)[C@@H]1O"
Result string: 0.27

Query string: What about this molecule? "OC[C@H]1O[C@H](O[C@H]2O[C@H](CO)[C@@H](O[C@H]3O[C@H](CO)[C@@H](O[C@H]4O[C@H](CO)[C@@H](O[C@H]5O[C@H](CO)[C@@H](O[C@H]6O[C@H](CO)[C@@H](O[C@H]7O[C@H](CO)[C@@H](O)[C@H](O)[C@H]7O)[C@H](O)[C@H]6O)[C@H](O)[C@H]5O)[C@H](O)[C@H]4O)[C@H](O)[C@H]3O)[C@H](O)[C@H]2O)[C@H](O)[C@@H](O)[C@@H]1O"
Result string: 0.23

Query string: Could you do the same for "OC[C@H]1O[C@H](O[C@H]2O[C@H](CO)[C@@H](O[C@H]3O[C@H](CO)[C@@H](O)[C@H](O)[C@H]3O)[C@H](O)[C@H]2O)[C@H](O)[C@@H](O)[C@@H]1O" , please?
Result string: 0.83
